Form field: remaining activity at 20 µM (one value per entry).
experimental.system: recombinant human cGAS enzyme (hcGAS-ΔN, residues 147–522) (Homo sapiens)
Construct: N-terminally truncated human cGAS (hcGAS-ΔN, residues 147–522); 6xHis-SUMO (N, cleaved yes); made in house; host or cells: Escherichia coli BL21 (DE3)
Sequence (Q8N884 147-522, stated change not applied): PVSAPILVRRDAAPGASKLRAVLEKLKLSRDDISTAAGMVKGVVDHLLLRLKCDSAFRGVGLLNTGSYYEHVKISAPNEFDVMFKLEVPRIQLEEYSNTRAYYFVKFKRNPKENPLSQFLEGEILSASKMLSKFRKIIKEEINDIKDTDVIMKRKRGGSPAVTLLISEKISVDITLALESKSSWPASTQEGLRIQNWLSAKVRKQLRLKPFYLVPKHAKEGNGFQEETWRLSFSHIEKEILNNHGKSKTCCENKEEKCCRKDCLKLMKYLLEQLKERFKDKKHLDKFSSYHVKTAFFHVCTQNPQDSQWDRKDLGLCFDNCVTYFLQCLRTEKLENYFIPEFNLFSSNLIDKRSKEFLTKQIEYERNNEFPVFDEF
protocol.details: RNA-based fluorescent biosensor assay of cGAS activity (2',3'-cGAMP formation), in vitro screening
Assay type: biochemical
experimental.parameters: 20 μM; replicate values; read-out: Remaining activity (%), Fig. 1a source data
Square brackets hold non-standard residues; d marks the D form. Peptide text beside a SMILES is read from it.
Just the number please, in %, no unit attached.

compound: CC(C)C[C@@H]1NC(=O)[C@H](CCCNC(=N)N)NC(=O)[C@H](C(C)C)NC(=O)[C@@H]2CCCN2C(=O)[C@@H](Cc2ccccc2)NC(=O)[C@H](C)NC(=O)[C@H](CCCNC(=N)N)NC(=O)[C@H](C(C)C)NC(=O)[C@@H]2CCCN2C(=O)[C@@H](Cc2ccccc2)NC1=O [XQ5, Cyclo (AfPVRLfPVR)] (cyclo(A[dF]PVRL[dF]PVR))
remaining activity at 20 µM [%]: 92.3
//
compound: CC(C)C[C@@H]1NC(=O)[C@H](CCCNC(=N)N)NC(=O)[C@H](C(C)C)NC(=O)[C@@H]2CCCN2C(=O)[C@@H](Cc2ccccc2)NC(=O)[C@H](CC(C)C)NC(=O)[C@H](CCCNC(=N)N)NC(=O)[C@H](C(C)C)NC(=O)[C@@H]2CCCN2C(=O)[C@@H](Cc2ccccc2)NC1=O [XQ38, Cyclo (LfPVRLfPVR)] (cyclo(L[dF]PVRL[dF]PVR))
remaining activity at 20 µM [%]: 113
//
compound: CC(C)[C@@H]1NC(=O)[C@@H]2CCCN2C(=O)[C@@H](C)NC(=O)[C@H](C)NC(=O)[C@H](CCCNC(=N)N)NC(=O)[C@H](C(C)C)NC(=O)[C@@H]2CCCN2C(=O)[C@@H](Cc2ccccc2)NC(=O)[C@H](C)NC(=O)[C@H](CCCNC(=N)N)NC1=O [XQ22, Cyclo (AaPVRAfPVR)] (cyclo(A[dA]PVRA[dF]PVR))
remaining activity at 20 µM [%]: 102
//
compound: CC(C)C[C@@H]1NC(=O)[C@H](CCCNC(=N)N)NC(=O)[C@H](C(C)C)NC(=O)[C@@H]2CCCN2C(=O)[C@@H](Cc2ccccc2)NC(=O)[C@H](C)NC(=O)[C@H](CCCNC(=N)N)NC(=O)[C@H](C(C)C)NC(=O)[C@H](C)NC(=O)[C@@H](Cc2ccccc2)NC1=O [XQ19, Cyclo (AfPVRLfAVR)] (cyclo(AVRA[dF]PVRL[dF]))
remaining activity at 20 µM [%]: 40.1

Could you now look at the following compound, please?
Bench note, recombinant human cGAS enzyme (hcGAS-ΔN, residues 147–522) (Homo sapiens): CC(C)C[C@@H]1NC(=O)[C@H](CCCNC(=N)N)NC(=O)[C@H](C(C)C)NC(=O)[C@@H]2CCCN2C(=O)[C@@H](Cc2ccccc2)NC(=O)[C@H](CC(C)C)NC(=O)[C@H](CCCNC(=N)N)NC(=O)[C@H](C(C)C)NC(=O)[C@@H]2CCCN2C(=O)[C@@H](C)NC1=O [XQ1, Cyclo (LaPVRLfPVR)] (cyclo(L[dA]PVRL[dF]PVR)) , remaining activity at 20 µM reads 76.9

The values you see were collected from paper PMC10545747.
